The reported numbers originate from patent US20060079453A1.

Form field: pIC50 (one value per entry).
# measured_target: HLA-A*3101 (Homo sapiens, UniProt P04439, A270S/D185E/E176V/E277Q/F33T/G231S/G80R/H175R/I121M/I218V/I322F/K168Q/L300P/L318F/M331R/P217A/Q94H/R138Q/T323A/T345S/T97I/V358M)
# assay_details: biochemical
# Type: binding
No end group written: not given here.
Entry type: numeric. Quantity: pIC50, the -log10 of concentration in molar units.

Guide cases for pIC50, answers given:
| sequence_input | pIC50 |
| --- | --- |
| LVFSNVLCFR | 7.48 |
| RFLSKISEYR | 7.48 |
| VTIRIGGQLK | 5.35 |
| KQVQMMIMIK | 5.33 |
| ATTDLTIVYR | 7.47 |
| GVIYIMIISK | 4.73 |
| VTVRVGGQLK | 5.08 |
| VTIKVGGQLK | 5.22 |
| AFRDLCIVYK | 8.00 |
| NVMGRWTGR | 7.40 |

Inquiry: What does the record list as pIC50 for FLYLLNKKNK ?
Reply text: 5.37

Inquiry: What does the record list as pIC50 for KQENWYSLKK ?
Reply text: 5.20

Inquiry: What does the record list as pIC50 for RFHSIAGQYK ?
Reply text: 8.89

Inquiry: What does the record list as pIC50 for SIPHAACHR ?
Reply text: 6.63

Inquiry: What does the record list as pIC50 for SSFDIKSEVK ?
Reply text: 4.70

Inquiry: What does the record list as pIC50 for VTIKIEGQLK ?
Reply text: 5.29

Inquiry: What does the record list as pIC50 for TVQPGPGPGK ?
Reply text: 5.87

Inquiry: What does the record list as pIC50 for AVADLTVVYR ?
Reply text: 7.51
